# system_tested: C. neoformans Sgl1 (Cryptococcus neoformans var. grubii, UniProt J9W473)
# Sequence (J9W473 entry or part of it): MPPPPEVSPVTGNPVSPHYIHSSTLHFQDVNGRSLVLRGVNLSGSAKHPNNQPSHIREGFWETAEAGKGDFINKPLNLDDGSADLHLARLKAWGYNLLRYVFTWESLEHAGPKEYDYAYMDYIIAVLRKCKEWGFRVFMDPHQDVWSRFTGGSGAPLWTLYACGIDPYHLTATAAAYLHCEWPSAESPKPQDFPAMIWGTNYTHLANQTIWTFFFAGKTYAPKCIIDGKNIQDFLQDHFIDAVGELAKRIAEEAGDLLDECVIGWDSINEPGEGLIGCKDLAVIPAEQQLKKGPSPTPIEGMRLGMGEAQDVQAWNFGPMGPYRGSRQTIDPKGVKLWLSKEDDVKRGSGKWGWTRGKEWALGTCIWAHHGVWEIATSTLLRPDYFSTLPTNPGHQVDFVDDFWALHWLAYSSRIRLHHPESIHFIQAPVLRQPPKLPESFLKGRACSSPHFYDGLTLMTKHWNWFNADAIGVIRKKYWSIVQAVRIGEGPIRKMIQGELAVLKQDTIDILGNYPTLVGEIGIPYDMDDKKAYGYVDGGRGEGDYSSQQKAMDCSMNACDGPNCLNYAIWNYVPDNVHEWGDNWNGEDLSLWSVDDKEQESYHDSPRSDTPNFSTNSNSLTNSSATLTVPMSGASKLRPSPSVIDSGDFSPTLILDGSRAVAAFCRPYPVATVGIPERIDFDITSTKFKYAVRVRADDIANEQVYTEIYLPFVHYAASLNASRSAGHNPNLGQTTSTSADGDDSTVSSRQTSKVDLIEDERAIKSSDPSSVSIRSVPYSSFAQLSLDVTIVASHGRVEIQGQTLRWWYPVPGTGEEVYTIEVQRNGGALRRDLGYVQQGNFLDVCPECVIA
# procedure_details: H/D exchange mass spectrometry mapping of disordered regions
# measurement_parameters: H/D exchange MS of C. neoformans Sgl1; per peptide (amino acids Start-End, Sequence); Fig S2a
Could you please classify the records by % Deuterium incorporation, Average using these ranges: bottom: < 20%; middle: ≥ 20% and < 50%; top: ≥ 50%

# substance, system_tested, discrete_label
measured = [
    ("VIGWDSINEPGEGLIGCKDL", "C. neoformans Sgl1 (Cryptococcus neoformans var. grubii, UniProt J9W473)", "bottom"),
    ("VGEIGIPYDMDDKKAYGYVDGGRGEGDY", "C. neoformans Sgl1 (Cryptococcus neoformans var. grubii, UniProt J9W473)", "middle"),
    ("VRIGEGPIRKMIQGEL", "C. neoformans Sgl1 (Cryptococcus neoformans var. grubii, UniProt J9W473)", "middle"),
    ("AKRIAEE", "C. neoformans Sgl1 (Cryptococcus neoformans var. grubii, UniProt J9W473)", "bottom"),
    ("RAIKSSDPSS", "C. neoformans Sgl1 (Cryptococcus neoformans var. grubii, UniProt J9W473)", "top"),
    ("FLKGRACSSPHF", "C. neoformans Sgl1 (Cryptococcus neoformans var. grubii, UniProt J9W473)", "middle"),
    ("STNSNSLTNSSATLTVPMSGASKLRPSPSV", "C. neoformans Sgl1 (Cryptococcus neoformans var. grubii, UniProt J9W473)", "top"),
    ("ILDGSRAVAA", "C. neoformans Sgl1 (Cryptococcus neoformans var. grubii, UniProt J9W473)", "middle"),
    ("STNSNSLTNSSAT", "C. neoformans Sgl1 (Cryptococcus neoformans var. grubii, UniProt J9W473)", "top"),
    ("LKKGPSPTPIEG", "C. neoformans Sgl1 (Cryptococcus neoformans var. grubii, UniProt J9W473)", "bottom"),
    ("WALGTCIWAHHGVWE", "C. neoformans Sgl1 (Cryptococcus neoformans var. grubii, UniProt J9W473)", "bottom"),
    ("IEVQRNGGALRRDLG", "C. neoformans Sgl1 (Cryptococcus neoformans var. grubii, UniProt J9W473)", "top"),
    ("STLPTNPGHQVD", "C. neoformans Sgl1 (Cryptococcus neoformans var. grubii, UniProt J9W473)", "top"),
    ("VTIVASHGRVEIQGQTLRWWYPVPGTGE", "C. neoformans Sgl1 (Cryptococcus neoformans var. grubii, UniProt J9W473)", "middle"),
    ("VTIVASHGRVEIQGQTLRWWYPVPGTGEEVY", "C. neoformans Sgl1 (Cryptococcus neoformans var. grubii, UniProt J9W473)", "bottom"),
]
